measurement.notes: Apparent permeability in MDCK2 cells
Type: ADME, cell-based, Canis lupus familiaris, MDCK-II
experimental.context: dog, MDCK
metric: Papp (×10⁻⁶ cm/s)

item.smiles: C[C@H](C(=O)Nc1ccc(F)cc1)C12CC(NC(=O)c3ccc(F)c(F)c3)(C1)C2
metric: Papp
endpoint.value: 29
//
item.smiles: C[C@H](C(=O)Nc1ccc(F)cc1)C12CC(NC(=O)c3cccc(Cl)c3)(C1)C2
metric: Papp
endpoint.value: 32

---

measurement.notes: Elimination half life in rat
Type: ADME
experimental.context: in vivo, read-out: beta t1/2 (converted)
metric: half-life (h)

[1] C[C@H](C(=O)Nc1ccc(F)cc1)C12CC(NC(=O)c3ccc(F)c(F)c3)(C1)C2
[2] C[C@H](C(=O)Nc1ccc(F)cc1)C12CC(NC(=O)c3cccc(Cl)c3)(C1)C2
## Input Looking at recorded values for half-life, does 1 or 2 come in lower? Field: selected label. Fill in the label of the entry you choose.
## Output 2
(2: 3.7 h, 1: 11 h)
